tested on: Caco-2; test: Bidirectional Caco-2 permeability assay; type: in vitro ADME; details: bidirectional Caco-2 assay, analysis by fluorescence and HPLC
# Caco-2 (10-6 cm/sec) listing for each entry below

{"molecular.string": "COc1cccc(C(=O)Nc2ccc3c(c2)CCN(c2nc(-c4ccccc4)cs2)C3)c1-c1ccc(C(F)(F)F)cc1", "Caco-2 (10-6 cm/sec)": "0 10-6 cm/sec"}
{"molecular.string": "COc1cccc(C(=O)Nc2ccc3c(c2)CCN(C(=O)Oc2ccc(F)cc2)C3)c1-c1ccc(C(F)(F)F)cc1", "Caco-2 (10-6 cm/sec)": "0 10-6 cm/sec"}
{"molecular.string": "COCCCNC(=S)N1CCc2cc(NC(=O)c3ccccc3-c3ccc(C(F)(F)F)cc3)ccc2C1", "Caco-2 (10-6 cm/sec)": "30 10-6 cm/sec"}
{"molecular.string": "COc1cccc(C(=O)Nc2ccc3c(c2)CCN(C(=O)Oc2ccccc2)C3)c1-c1ccc(C(F)(F)F)cc1", "Caco-2 (10-6 cm/sec)": "0 10-6 cm/sec"}
